Reference source for all entries: patent US5593970A

- Test system: T47D
- experimental-details: Microculture tetrazolium assay
- Format: cell-based
- run-conditions: Homo sapiens, read-out: IC50
Counter-ions that a name gives are not always drawn.
quantity-measured: IC50 (µM)
Output spec: scalar in µM, unitless text.

- compound: "CC(=O)Oc1c2c(c(O)c3ccccc13)C(=O)C1=C(CC(C3(C)OCCCO3)OC1)C2=O (stereo not drawn)"
  meas-value: 100
- compound: "CO[C@H]1S[C@H](C(C)=O)CC2=C1C(=O)c1cc3ccccc3c(O)c1C2=O (relative stereo)"
  meas-value: 12.2
- compound: "CC(C)[C@@H]1Cc2c(O)c3c(c(O)c2[C@@H](O[C@H]2C[C@H](N)[C@H](O)[C@H](C)O2)O1)C(=O)c1ccccc1C3=O"
  meas-value: 0.412
- compound: "CC(=O)[C@H]1Cc2c(O)c3c(c(O)c2[C@H](O[C@H]2C[C@H](O)[C@H](O)[C@H](C)O2)O1)C(=O)c1ccccc1C3=O"
  meas-value: 34
- compound: "COCC1Cc2c(O)c3c(c(O)c2C(O[C@H]2C[C@H](N)[C@H](O)[C@H](C)O2)O1)C(=O)c1ccccc1C3=O (mixture of isomers) [BCH-1992, hydrochloride]"
  meas-value: 0.807

Prompt: Give IC50 for CC(=O)C1Cc2c(O)c3c(c(O)c2CO1)C(=O)c1ccccc1C3=O (stereo not drawn)
Completion: 100

Prompt: Provide IC50 value for the following compound: CC(=O)C1Cc2c(O)c3c(c(O)c2C(O)O1)C(=O)c1ccccc1C3=O (stereo not drawn)
Completion: 11.1

Prompt: Report IC50 for CC(=O)C1CC2=C(C(=O)c3cc4ccccc4c(O)c3C2=O)C(OC[C@@H]2COC(C)(C)O2)O1 (stereo partly drawn)
Completion: 5.12

Prompt: Look up IC50 of `C=C[C@H]1CC2=C(C(=O)c3cc4ccccc4c(O)c3C2=O)[C@H](O[C@H]2C[C@H](NC(=O)C(F)(F)F)[C@H](O)[C@H](C)O2)O1` and report it.
Completion: 8.5

Prompt: Respond only with IC50 recorded for CC(=O)C1CC2=C(C(=O)c3cc4ccccc4c(O)c3C2=O)C(OC[C@H]2COC(C)(C)O2)S1 (stereo partly drawn)
Completion: 2.97

Prompt: Identify the reported IC50 for the following entry. CC(=O)C1CC2=C(CS1)C(=O)c1cc3ccccc3c(O)c1C2=O (stereo not drawn)
Completion: 62.5

Prompt: Output IC50 of C[C@@H]1O[C@@H](O[C@H]2O[C@H](COc3ccccc3)CC3=C2C(=O)c2cc4ccccc4c(O)c2C3=O)C[C@H](NC(=O)C(F)(F)F)[C@@H]1O (mixture of isomers)
Completion: 5.72

Prompt: Check the records and state IC50 for CC(=O)Oc1c2c(c(O)c3ccccc13)C(=O)C1=C(COC(C3(C)OCCCO3)C1)C2=O (stereo not drawn)
Completion: 100

Prompt: Answer with the recorded IC50 of `C[C@@H]1O[C@@H](O[C@H]2OCCC3=C2C(=O)c2cc4ccccc4c(O)c2C3=O)C[C@H](NC(=O)C(F)(F)F)[C@@H]1O` only.
Completion: 2.81

Prompt: Give reported IC50 value for `CC(=O)[C@@H]1CC2=C(C(=O)c3cc4ccccc4c(O)c3C2=O)[C@@H](O[C@H]2C[C@H](NC(=O)C(F)(F)F)[C@H](O)[C@H](C)O2)S1`
Completion: 2

Prompt: Identify IC50 associated with the compound `CCN(CC)C(=O)[C@@H]1CC2=C(C(=O)c3cc4ccccc4c(O)c3C2=O)[C@@H](O[C@H]2C[C@H](NC(=O)C(F)(F)F)[C@H](O)[C@H](C)O2)O1`
Completion: 5.19

Prompt: Recall and state the measured IC50 for CC(=O)C1CC2=C(C(=O)c3cc4ccccc4c(O)c3C2=O)C(OC[C@@H]2COC(C)(C)O2)S1 (stereo partly drawn) .
Completion: 4.97

Prompt: Provide IC50 value for the following compound: CC(=O)OCC1(C2CC3=C(C(=O)c4c(cc5ccccc5c4OC(C)=O)C3=O)C(O[C@H]3C[C@H](NC(=O)C(F)(F)F)[C@H](O)[C@H](C)O3)O2)OCCCO1 (stereo partly drawn)
Completion: 4.9

Prompt: In one line, give reported IC50 of the entry CC(=O)O[C@@H]1[C@H](C)O[C@@H](OC2OC(C(=O)CO)CC3=C2C(=O)c2cc4ccccc4c(O)c2C3=O)C[C@@H]1OC(C)=O (stereo partly drawn) .
Completion: 5.39

Prompt: Give IC50 for C=CC1CC2=C(C(=O)c3cc4ccccc4c(OC(C)=O)c3C2=O)C(OC)O1 (stereo not drawn)
Completion: 70.3

Prompt: Please look at this compound and report its IC50: `CC(=O)[C@@H]1Cc2c(O)c3c(c(O)c2[C@@H](O[C@H]2C[C@H](O)[C@H](O)[C@H](C)O2)O1)C(=O)c1ccccc1C3=O`
Completion: 100

Prompt: Indicate its recorded IC50; the compound in question is CCOC(=O)C1CC2=C(CO1)C(=O)c1c(cc3ccccc3c1O)C2=O (stereo not drawn)
Completion: 36.3
